As an illustration, consider measured GI50 for compounds on lung cancer cell line A549.
Your answer is read as µM, so omit the unit and give the number.

# compound, GI50 (µM)
records = [
    ("CC(=O)OC1C(=O)C2(C)C(O)CC3OCC3(OC(C)=O)C2C(OC(=O)c2ccccc2)C2(O)CC(OC(=O)C(OC(=O)CCCCB(O)O)C(NC(=O)c3ccccc3)c3ccccc3)C(C)=C1C2(C)C (stereo not shown) [Compound 17c, 2’-O-[5-boronopentanoyl]taxol]", 0.0448),
]

// switching to the query compound
**Q:** Name the reported GI50 value associated with the compound CC(=O)OC1C(=O)C2(C)C(O)CC3OCC3(OC(C)=O)C2C(OC(=O)c2ccccc2)C2(O)CC(OC(=O)C(OC(=O)CCCB(O)O)C(NC(=O)c3ccccc3)c3ccccc3)C(C)=C1C2(C)C (stereo not shown) [Compound 17b, 2’-O-[4-boronobutanoyl]taxol]
**A:** 0.0692
